- assay_protocol: NCI Yeast Anticancer Drug Screen. Data for the rad50 strain (AID 155);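 further: 0% = growth of vehicle-only cultures of the same strain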
- stated_conditions: S. cerevisiae rad50 strain growth inhibition; at 3.7 µM; hits give high values
Compounds without any hit were thinned out: in the full panel of roughly 79,000, 15% have a hit.
Everything with growth inhibition lower than 30% is false (0); everything else, including exactly 30%, is true (1).

// known answers, use as guide
CC(=O)C1(O)Cc2c(O)c3c(c(O)c2C(OC2CC(N)C(O)C(C)O2)C1)C(=O)c1ccccc1C3=O (stereo not given): true (1)
O=c1ccc(N=Nc2ccccc2)ccc1O: true (1)
O=[N+]([O-])c1cc(S(=O)(=O)Nc2ccccc2)ccc1Cl: false (0)
C/C(=N\NC(=S)NNC(=S)N(C)c1ccccc1)c1ccccn1: true (1)
CCOC(=O)C1=C(C)NC(C)=C(C(=O)OCC)C1c1ccc(C)cc1: true (1)

Problem: Please indicate if the recorded growth inhibition for COc1cc(NCc2ccc3nc(N)nc(N)c3c2C)cc(OC)c1OC meets or exceeds 30%.
Solution: false (0)

Problem: Has CN(NC(=O)/C(=C/c1ccc(O)cc1)NC(=O)c1ccccc1)c1ccnc2cc(Cl)ccc12 a recorded growth inhibition greater than or equal to 30%?
Solution: false (0)

Problem: Record CC1(C)C(C=O)=CCC1CC(N)=O (stereo not given) ; criterion: growth inhibition no lower than 30%. Met?
Solution: false (0)

Problem: For this molecule, is measured growth inhibition 30% or higher? COC(=O)/C=C1/OC(c2ccc(Br)cc2)=C(Br)C1=O
Solution: false (0)

* * *

- assay_protocol: NCI Yeast Anticancer Drug Screen. Data for the bub3 strain (AID 167)
- stated_conditions: S. cerevisiae bub3 mutant strain, at 100.0 µM
About 79,000 compounds went through this panel and 15% of them were active in at least one assay; those are over-represented in the sample as a whole. Activity calls are given as the source filed them. No stated cut-off is given here; in the data, active means growth inhibition above about 70%; inactive means the rest.
Choose the fitting class; nothing outside active, inactive is accepted.

O=Nn1c2ccccc2c2cc([N+](=O)[O-])ccc21: active
O=C(/C=C/c1cccc2ccccc12)c1ccc(Cl)cc1: inactive
O=C1NC(c2c(Cl)cccc2Cl)Nc2ccccc21 (stereo not given): active
CC(C)c1cccc(O)c(=O)c1: active

# evaluate next
Problem: Please let me know the test result on file for CCOC(=O)[C@]1(Br)CC[C@@]1(Br)C(=O)OCC .
Solution: active

* * *

- assay_protocol: NCI Yeast Anticancer Drug Screen. Data for the rad14 strain (AID 159);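 further: 0% = growth of vehicle-treated control cultures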
- stated_conditions: S. cerevisiae rad14 strain growth inhibition; at 100.0 µM
About 79,000 compounds went through this panel and 15% of them were active in at least one assay; those are over-represented in the sample as a whole. Calls of active or inactive are those of the source. Cut-off read from the data, not from the text of the source: active = growth inhibition above about 70%; inactive = the rest.
Allowed answers: t (active), f (inactive)

Some solved entries appear below for comparison.
NNC(=S)Nc1cccc(Cl)c1: t
CC(=O)[O-].O=C([CH-]C(=O)c1ccccc1)c1ccccc1.O=C([CH-]C(=O)c1ccccc1)c1ccccc1.[Sm+3]: t
O=Cc1coc2ccccc2c1=O: t
O=C1c2ccccc2CCC1(Br)Br: t

Problem: Assay result, entry CC1=CC2C(C(C)C)CC1C1C(=O)OC(=O)C21 (configuration not stated) — outcome?
Solution: t

Problem: Recorded call for CCCCCC#CCOC(=O)C(=[N+]=[N-])P(=O)(c1ccccc1)c1ccccc1 ?
Solution: t

Problem: Tell me the recorded outcome of this test for C=C1N(C)c2ccc(Cl)cc2C1(C)C .
Solution: t

Problem: Kindly provide the recorded test outcome for the following compound: O=C1C=CC(=O)N1c1ccc(N2C(=O)C=CC2=O)cc1
Solution: t

Problem: Which outcome was entered for the compound Clc1cc(-c2ccccc2)nc2ccccc12 in this test?
Solution: t

* * *

- assay_protocol: NCI Yeast Anticancer Drug Screen. Data for the bub3 strain (AID 167)
- stated_conditions: S. cerevisiae bub3 mutant strain, at 50.0 µM (retest, dose inferred, filed as 5.0)
The panel holds about 79,000 compounds, 15% with a hit somewhere; the sample as a whole holds those more often. Active and inactive are the calls of the source. Cut-off read from the data, not from the text of the source: active = growth inhibition above about 70%; inactive = the rest.
Please state which outcome applies, choosing from true (1) (active), false (0) (inactive)

Recorded results for 8 molecules are shown here.
O=S(=O)(c1cc(Cl)ccc1O)c1cc(Cl)ccc1O: true (1)
O=c1[nH]c2ccccc2c2nc3ccccc3n12: true (1)
O=C1c2cccc3cc([N+](=O)[O-])cc(c23)C(=O)N1CCN1CCCC1: false (0)
CCc1[nH]nc(C(N)=O)c1N=NN(C)C: false (0)
NC(N)=NCCCS(=O)(=O)Nc1ccc(Nc2c3ccccc3nc3cc([N+](=O)[O-])ccc23)cc1: true (1)
O=C(O)c1[nH]c(=O)c2ccccc2c1Nc1ccccc1: false (0)
Cc1ccc(CNc2ccc(Br)cc2)cc1: true (1)
CN(NC(=O)/C(=C/c1ccc(O)cc1)NC(=O)c1ccccc1)c1ccnc2cc(Cl)ccc12: false (0)

Problem: Query: recorded result category for O=Cc1coc2ccccc2c1=O in this test
Solution: true (1)

Problem: What classification did Cc1cccc(/C=N/NC(=S)N(C)CCc2ccccn2)n1 end up with in this test?
Solution: true (1)

Problem: Recorded test outcome, item CCCCCC#CCOC(=O)C(=[N+]=[N-])P(=O)(c1ccccc1)c1ccccc1
Solution: true (1)

Problem: Call for entry CCc1nc(N)nc(N)c1-c1ccc(NCCCCCCN)c([N+](=O)[O-])c1 :
Solution: false (0)

Problem: Dear all, I need the recorded test outcome for O=Nn1c2ccccc2c2cc([N+](=O)[O-])ccc21 , thank you.
Solution: true (1)

Problem: Lab log entry: C=C1N(C)c2ccc(Cl)cc2C1(C)C — outcome as called in the assay?
Solution: true (1)

* * *

- assay_protocol: NCI Yeast Anticancer Drug Screen. Data for the rad18 strain (AID 177)
- stated_conditions: S. cerevisiae rad18 mutant growth inhibition; at 33.0 µM
About 79,000 compounds went through this panel and 15% of them were active in at least one assay; those are over-represented in the sample as a whole. The source made the active and inactive calls. Rule as the data show it: active = growth inhibition above about 70%; inactive = the rest.
Select the matching outcome among active, inactive

Before answering, review these 4 worked examples.
CC(C)c1cccc(O)c(=O)c1: inactive
S=P(N1CC1)(N1CC1)N1CC1: inactive
CC1(C)C(C=O)=CCC1CC(N)=O (centres undefined): inactive
CCc1[nH]nc(C(N)=O)c1N=NN(C)C: active

Problem: Test call, this compound: O=c1ccc(N=Nc2ccccc2)ccc1O
Solution: active

Problem: Kindly provide the recorded test outcome for the following compound: CCC(=O)N(c1ccccc1)C(C)CN1CCC(O)(c2cccc(C(F)(F)F)c2)CC1 (centres undefined)
Solution: inactive

Problem: Could you check what this test reported for CCC(C)(c1ccc(O)c(C)c1)c1ccc(O)c(C)c1 ?
Solution: active

Problem: Assay result, entry Cc1ccc(Nc2c3c(c(C#N)c4nc5ccccc5n24)CCCC3)cc1 — outcome?
Solution: active

Problem: For this compound, state the assay outcome: CN(Cc1cnc2nc(N)nc(N)c2n1)c1ccc(C(=O)NC(CCC(=O)O)C(=O)O)c2ccccc12 (centres undefined)
Solution: active

* * *

- assay_protocol: NCI Yeast Anticancer Drug Screen. Data for the mgt1 strain (AID 153)
- stated_conditions: S. cerevisiae mgt1 mutant growth inhibition; at 1.2 µM; hits give high values
The panel holds about 79,000 compounds, 15% with a hit somewhere; the sample as a whole holds those more often.
Let's look at some molecules and their measured growth inhibition.
Give just the numeric value; % need not be written.

These recorded examples may help you get a feel for the data.
[Pt].c1ccc(P(CCP(c2ccccc2)c2ccccc2)CCP(c2ccccc2)c2ccccc2)cc1: -5
Cc1cc(Cl)nc2nc(Cl)c(N)cc12: -14
CC(=O)c1cc2c(Cl)cc(Cl)cc2oc1=O: 9
COc1ccc(N)c2c1C(=O)c1ccccc1C2=O: 3

Entry under test: COc1ccc2c(c1)[nH]c1c(/C=C/c3ccccc3)nccc12 . Its growth inhibition was 9

Input Cc1c(-c2ccccc2)[nH]c2ccccc12 . Output growth inhibition: -19

Entry O=C(CNS(=O)(=O)Cc1ccccc1)NNc1ccccc1 — recorded growth inhibition = -1

Form field growth inhibition, entry COc1cc(NCc2ccc3nc(N)nc(N)c3c2C)cc(OC)c1OC : -3

In plain terms, O=NN(CCCl)C(=O)NCCCl has a documented growth inhibition of -3

Quick note, growth inhibition for Nc1nc(F)nc2c1ncn2C1OC(COP(=O)(O)O)C(O)C1O (stereo unspecified) landed at -3

What the record says about CC[C@@]1(OC(=O)CCC(=O)O)C(=O)OCc2c1cc1n(c2=O)Cc2cc3ccccc3nc2-1 : growth inhibition is -6

* * *

- assay_protocol: NCI Yeast Anticancer Drug Screen. Data for the sgs1 strain (AID 173);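 further: 0% = growth of vehicle-only control cultures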
- stated_conditions: S. cerevisiae sgs1 mutant, at 11.0 µM
About 79,000 compounds went through this panel and 15% of them were active in at least one assay; those are over-represented in the sample as a whole. Active and inactive are the calls of the source. No stated cut-off is given here; in the data, active means growth inhibition above about 70%; inactive means the rest.
Could you please pick one outcome from this set? 1 for active, 0 for inactive

Some entries whose results are on file:
CCn1ncc(N=O)c1N: 0
CNc1ccc(Cc2c[nH]c3ccccc23)cc1: 0
CCCCC(=O)c1c(O)nc2sccn2c1=O: 1
CSc1s[s+]c(SC)c1-c1ccccc1: 0
Nc1nc(F)nc2c1ncn2C1OC(COP(=O)(O)O)C(O)C1O (stereo unspecified): 0
CCOC(=O)c1csc(Br)n1: 0

Problem: Assay outcome for Cc1cccc2c1N=C(C(F)(F)F)CC2=O : what was it?
Solution: 0

Problem: For this compound, state the assay outcome: COc1ccc(N)c2c1C(=O)c1ccccc1C2=O
Solution: 0

Problem: Call for entry CCOC(=O)[C@]1(Br)CC[C@@]1(Br)C(=O)OCC :
Solution: 0

Problem: Hey, what did the test say about CO[C@@]12[C@H](COC(N)=O)C3=C(C(=O)C(C)=C(N)C3=O)N1C[C@@H]1N[C@@H]12 ?
Solution: 0

Problem: Each compound tested received a call. Report the one for CCCCCCSc1nc(COC(=O)NC)c(COC(=O)NC)n1C .
Solution: 0

Problem: Answer briefly: the call reported for CN(N=O)c1ccc(/C=C/c2ccnc3ccccc23)cc1 in this assay.
Solution: 0

Problem: Per the records of this test, what outcome belongs to N#C/C(=C1C=C/C(=N/O)c2ccccc2/1)c1ccccc1 ?
Solution: 0

Problem: I would be grateful if you could indicate the recorded call for C=Cc1cnc([N+](=O)[O-])n1C .
Solution: 0

Problem: Field: outcome | Entry: ClCCn1c(CCl)nc2ccc(Cl)cc21
Solution: 0
